# study_target: Class I HLA molecule B*0702 in recombinant form (UniProt P01889 25-302)
# protocol_text: iTopia ELISA-like peptide-HLA binding
Please respond with true (1) when measured Bond results is strictly beneath 1%, and with false (0) in all other cases.

# example entries with known answers
| binder | category |
| --- | --- |
| RLEPEDFAV [VK3-20 peptide No 78 RLEPEDFAV] | false (0) |
| TLSCRASQI (also called P20) [VK3-20 peptide No 20 TLSCRASQI] | false (0) |
| LLIYGASSR [VK3-20 peptide No 47 LLIYGASSR] | false (0) |

In: Does SYLAWYQQK [VK3-20 peptide No 32 SYLAWYQQK] have Bond results strictly under 1%?
Out: false (0)

In: Does KPGQAPRLL [VK3-20 peptide No 40 KPGQAPRLL] have Bond results strictly under 1%?
Out: false (0)

In: Does SQIVSSSYL [VK3-20 peptide No 26 SQIVSSSYL] have Bond results strictly under 1%?
Out: false (0)

In: Does FTLTISRLE [VK3-20 peptide No 72 FTLTISRLE] have Bond results strictly under 1%?
Out: false (0)

In: Does TQSPGTLSF [VK3-20 peptide No 5 TQSPGTLSF] have Bond results strictly under 1%?
Out: true (1)

Reference source: patent US8512703B2
